Test system: Escherichia coli TOP10;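 further: peptides expressed intracellularly from a pBAD plasmid library in pooled LB shake-flask culture, induced with 0.3% L-arabinose, DNA abundance read by NGS, three biological replicates, DESeq2 with apeglm shrinkage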
EXPERIMENT NOTES: shrunken log2 fold change of peptide-encoding DNA abundance (4.5 h post-induction vs induction); higher = less antimicrobial activity (less host growth inhibition)
CONDITION SUMMARY: time post-induction: 4.5 h; library: site-saturation at positions 5, 18, 19, 20
MEASUREMENT TYPE: shrunken log2 fold change
Note: the reply should be a number with no unit written.

[[record]]
seq_string = "RRIRCRPPRLPRPRPRPGHLPRP"
measurement_type = "shrunken log2 fold change"
endpoint_value = -0.0824

[[record]]
seq_string = "RRIRPRPPRLPRPRPRPAIEPRP"
measurement_type = "shrunken log2 fold change"
endpoint_value = -0.0623


INPUT: Give the reported value of shrunken log2 fold change for this record: "RRIRIRPPRLPRPRPRPHNDPRP"
OUTPUT: -0.55

INPUT: Give the reported value of shrunken log2 fold change for this record: "RRIRIRPPRLPRPRPRPMHFPRP"
OUTPUT: -0.487
